// reported relative cell viability per item
Tested on: HCC1937
Assay: relative cell viability, compound alone, vs DMSO (fraction of DMSO control); higher = less growth inhibition
Settings: 72 h

Example entries begin here.
* CN1CCN(C(=O)C2C(C(=O)O)[C@H]3CC[C@@H]2O3)CC1 (stereo partly drawn) | 0.568
* COc1cc(O)c2c(c1)O[C@H](c1ccc(O)cc1)CC2=O [Sakuranetin] | 0.627
* CCCCCCCCCCC[C@@H](C[C@@H]1OC(=O)[C@H]1CCCCCC)OC(=O)[C@H](CC(C)C)NC=O [Orlistat] | 0.977
* O=C(NC1CCN(CCCCC2(C(=O)NCC(F)(F)F)c3ccccc3-c3ccccc32)CC1)c1ccccc1-c1ccc(C(F)(F)F)cc1 [Lomitapide] | 0.293
* O=C(c1ccc(-c2nc3ccc(F)cc3o2)cc1)N1CCN(C(=O)C2(O)CC2)CC1 | 0.831

State, for HCC1937, measured relative cell viability of the molecule listed here: "Cc1nc(Nc2cnn(C3CCNCC3)c2)nc2c1N(C)C(=O)c1cc3ccccc3cc1N2C"
0.354

State, for HCC1937, measured relative cell viability of the molecule listed here: C=C1C[C@]2(O)O[C@@]3(CC2=C(C)C)[C@@H](C)CC[C@@H]13 [Isocurcumenol]
0.933

State, for HCC1937, measured relative cell viability of the molecule listed here: Cc1cnc(C(=O)NCCc2ccc(S(=O)(=O)NC(=O)NC3CCCCC3)cc2)cn1 [Glipizide]
0.679

* * *

Test system: MDA-MB-231
Test: relative cell viability, compound alone, vs DMSO (fraction of DMSO control); higher = less growth inhibition
Conditions: 72 h
assay.readout: relative cell viability

Example entries begin here.
- O=C(O)CCn1c2c(c3ccccc31)C[C@H](NS(=O)(=O)c1ccc(F)cc1)CC2: 0.841
- COc1ccc(C(=O)/C=C/c2ccccc2)cc1: 0.889
- O=C(O)c1cccnc1Nc1cccc(C(F)(F)F)c1: 0.89
- CC1=C(C)C(=O)C(C(CCCCCC(=O)O)c2ccccc2)=C(C)C1=O (stereo not given): 0.809

// moving on: another record for relative cell viability
Return reported relative cell viability. Input compound: O=C(O)CC[C@H](O)C(=O)O [L-2-Hydroxyglutaric acid disodium]
1

* * *

Tested on: MDA-MB-231
Assay: relative cell viability, compound + RSL3, vs DMSO (fraction of DMSO control); higher = less growth inhibition
Details: 72 h
assay.readout: relative cell viability
Respond using a number only.

Example entries begin here.
• O=C(O)C(=O)Nc1sc2c(c1C(=O)O)CCNC2 + COC(=O)c1ccc([C@H]2c3[nH]c4ccccc4c3C[C@H](C(=O)OC)N2C(=O)CCl)cc1 = 0.648
• COc1ccc(/C=C/c2cc(O)cc(O[C@@H]3O[C@H](CO)[C@@H](O)[C@H](O)[C@H]3O)c2)cc1 [Deoxyrhapontin] + COC(=O)c1ccc([C@H]2c3[nH]c4ccccc4c3C[C@H](C(=O)OC)N2C(=O)CCl)cc1 = 0.693
• O=C(O)CCCc1cc2cc(Cl)ccc2n1S(=O)(=O)c1ccc2ncsc2c1 [Lanifibranor] + COC(=O)c1ccc([C@H]2c3[nH]c4ccccc4c3C[C@H](C(=O)OC)N2C(=O)CCl)cc1 = 0.786
• CC1=C[C@]2(O)O[C@@]3(CC2=C(C)C)[C@@H](C)CC[C@@H]13 [Curcumenol] + COC(=O)c1ccc([C@H]2c3[nH]c4ccccc4c3C[C@H](C(=O)OC)N2C(=O)CCl)cc1 = 0.517

// moving on: another record for relative cell viability
State, for MDA-MB-231, measured relative cell viability of the compound listed here: CC(C)(C)NC(=O)[C@H]1CC[C@H]2[C@@H]3CC[C@H]4NC(=O)C=C[C@]4(C)[C@H]3CC[C@]12C [Finasteride] + COC(=O)c1ccc([C@H]2c3[nH]c4ccccc4c3C[C@H](C(=O)OC)N2C(=O)CCl)cc1
0.645
